# procedure.details: Lipophilicity, log P of the compound by RP-HPLC analysis
# Assay type: physicochemical
# condition.notes: read-out: logP
Consider the following compounds; for each one, report its logP.
One number for each entry.

These recorded examples may help you get a feel for the data.
CCCCn1cc(C(=O)NCc2ccc(OC)cc2)c(=O)c2cc(F)c(N3CCC(C(N)=O)CC3)cc21    2.4
CCCn1cc(C(=O)NCc2ccccc2)c(=O)c2cc(F)c(N3CCC(C(N)=O)CC3)cc21    2.4
CCCCn1cc(C(=O)NCc2ccco2)c(=O)c2cc(F)c(N3CCC(C(N)=O)CC3)cc21    2.4
CCCCn1cc(C(=O)NCc2ccccc2)c(=O)c2cc(F)c(N3CCCCC3)cc21    2.4

Consider the following items and state reported logP for each.
1. CCCCn1cc(C(=O)NCc2ccc([N+](=O)[O-])cc2)c(=O)c2cc(F)c(N3CCC(C(N)=O)CC3)cc21
2. CCCCn1cc(C(=O)NCc2ccccc2)c(=O)c2cc(F)c(N3CCC(C(N)=O)CC3)cc21
3. CCCCn1cc(C(=O)NCc2ccccc2)c(=O)c2cc(F)c(N(C)C)cc21
4. NC(=O)C1CCN(c2cc3c(cc2F)c(=O)c(C(=O)NCc2ccccc2)cn3C2CC2)CC1

## Result
[2.4, 2.4, 2.4, 2.4]

----------
# procedure.details: Selectivity index, ratio of IC50 for mouse J774.1 cells to IC50 for Trypanosoma brucei rhodesiense STIB900
# Format: toxicity
# condition.notes: read-out: Ratio IC50
metric: selectivity ratio

## Task Item under review: "CCCCn1cc(C(=O)NCc2ccccc2)c(=O)c2cc(F)c(N3CCOCC3)cc21" . Reported selectivity ratio?
## Result 6330

----------
Consider the following molecules; for each one, report its log10 of IC50.
# Test system: Trypanosoma brucei brucei
# procedure.details: Antitrypanosomal activity against Trypanosoma brucei brucei TC221 […] after 72 hrs by alamar blue assay
# Type: functional, organism-based
# condition.notes: TC221, 72 h
Please interpret these as log10 of IC50 where IC50 is in µM.

CCCCn1cc(C(=O)NCc2ccccc2)c(=O)c2cc(F)c(N(C)C)cc21    -0.04
CCCCn1cc(C(=O)NCc2ccccc2)c(=O)c2cc(F)c(N(C)Cc3ccccc3)cc21    1.03
CCCCn1cc(C(=O)NCc2ccco2)c(=O)c2cc(F)c(N3CCC(C(N)=O)CC3)cc21    0.26
CCCCn1cc(C(=O)O)c(=O)c2cc(F)c(N3CCCCC3)cc21    1.26
NC(=O)C1CCN(c2cc3c(cc2F)c(=O)c(C(=O)NCc2ccccc2)cn3C2CC2)CC1    0.28

Consider the following items and state reported log10 of IC50 for each.
1. CCCn1cc(C(=O)NCc2ccco2)c(=O)c2cc(F)c(N3CCC(C(N)=O)CC3)cc21
2. CCCCn1cc(C(=O)O)c(=O)c2cc(F)c(N(C)Cc3ccccc3)cc21

## Result
[0.68, 1.36]

----------
# Test system: Trypanosoma brucei brucei
# procedure.details: Antitrypanosomal activity against Trypanosoma brucei brucei TC221 […] after 72 hrs by alamar blue assay
# Assay type: functional, organism-based
# condition.notes: TC221, 72 h
Binarize IC50 at 3 µM; below is Satisfied, at or above is Not satisfied.

CCCn1cc(C(=O)O)c(=O)c2cc(F)c(N3CCC(C(N)=O)CC3)cc21    Not satisfied
CCCCn1cc(C(=O)NCc2ccc(OC)cc2)c(=O)c2cc(F)c(N3CCC(C(N)=O)CC3)cc21    Satisfied
CCCCn1cc(C(=O)NCc2ccc([N+](=O)[O-])cc2)c(=O)c2cc(F)c(N3CCC(C(N)=O)CC3)cc21    Satisfied
CCCCn1cc(C(=O)NCc2ccccc2)c(=O)c2cc(F)c(N3CCCCC3)cc21    Satisfied
CCCCn1cc(C(=O)O)c(=O)c2cc(F)c(N3CCOCC3)cc21    Not satisfied

## Task A record lists "CCCCn1cc(C(=O)NCc2ccc(OC)c([N+](=O)[O-])c2)c(=O)c2cc(F)c(N3CCC(C(N)=O)CC3)cc21" . Is its IC50 below 3 µM?
## Result Not satisfied

## Task A record lists "CCCCn1cc(C(=O)NCc2ccccc2)c(=O)c2cc(F)c(N3CCOCC3)cc21" . Is its IC50 below 3 µM?
## Result Satisfied

## Task A record lists "CCCn1cc(C(=O)NCc2ccc(OC)cc2)c(=O)c2cc(F)c(N3CCC(C(N)=O)CC3)cc21" . Is its IC50 below 3 µM?
## Result Not satisfied

## Task A record lists "CCCCn1cc(C(=O)O)c(=O)c2cc(F)c(N3CCC(C(N)=O)CC3)cc21" . Is its IC50 below 3 µM?
## Result Not satisfied

## Task A record lists "CCCCn1cc(C(=O)O)c(=O)c2cc(F)c(Cl)cc21" . Is its IC50 below 3 µM?
## Result Not satisfied

## Task A record lists "CCn1cc(C(=O)O)c(=O)c2ccc(C(F)(F)F)cc21" . Is its IC50 below 3 µM?
## Result Not satisfied

----------
# procedure.details: Selectivity index, ratio of IC50 for mouse J774.1 cells to IC50 for Trypanosoma brucei brucei TC221
# Assay type: toxicity
# condition.notes: read-out: Ratio IC50
Consider the following compounds; for each one, report its selectivity ratio.

CCCCn1cc(C(=O)O)c(=O)c2cc(F)c(Cl)cc21    > 2.5
CCCCn1cc(C(=O)NCc2ccccc2)c(=O)c2cc(F)c(-c3ccccc3)cc21    > 2.5

Consider the following items and state reported selectivity ratio for each.
1. CCCCn1cc(C(=O)NCc2ccco2)c(=O)c2cc(F)c(N3CCC(C(N)=O)CC3)cc21
2. CCn1cc(C(=O)NCc2ccc(OC)cc2)c(=O)c2ccc(C(F)(F)F)cc21
3. CCCCn1cc(C(=O)NCc2ccccc2)c(=O)c2cc(F)c(N3CCC(C(N)=O)CC3)cc21

## Result
40.2
> 13.7
43.1

Consider the following items and state reported selectivity ratio for each.
1. CCn1cc(C(=O)Nc2ccc(Cl)c(F)c2)c(=O)c2ccc(C(F)(F)F)cc21
2. COc1ccc(CNC(=O)c2cn(C3CC3)c3cc(N4CCC(C(N)=O)CC4)c(F)cc3c2=O)cc1
3. CCCCn1cc(C(=O)O)c(=O)c2cc(F)c(N(C)C)cc21
4. CCCCn1cc(C(=O)O)c(=O)c2cc(F)c(N3CCCCC3)cc21

## Result
["> 2.5", "> 36.4", "> 2.5", 6.39]

## Task Item under review: "CCCCn1cc(C(=O)NCc2ccc([N+](=O)[O-])cc2)c(=O)c2cc(F)c(N3CCC(C(N)=O)CC3)cc21" . Reported selectivity ratio?
## Result > 185

----------
Consider the following molecules; for each one, report its selectivity ratio.
# procedure.details: Selectivity index, ratio of IC50 for mouse J774.1 cells to IC50 for Trypanosoma brucei brucei TC221
# Format: toxicity
# condition.notes: read-out: Ratio IC50
One number for each entry.

These recorded examples may help you get a feel for the data.
CCCCn1cc(C(=O)NCc2ccccc2)c(=O)c2cc(F)c(N(C)Cc3ccccc3)cc21    15.9
CCCCn1cc(C(=O)NCc2ccccc2)c(=O)c2cc(F)c(N3CCOCC3)cc21    1140
CCCCn1cc(C(=O)O)c(=O)c2cc(F)c(N(C)Cc3ccccc3)cc21    2.51
CCCCn1cc(C(=O)NCc2ccc(O)cc2)c(=O)c2cc(F)c(N3CCC(C(N)=O)CC3)cc21    13.5
CCCn1cc(C(=O)NCc2ccccc2)c(=O)c2cc(F)c(N3CCC(C(N)=O)CC3)cc21    58.3

Consider the following items and state reported selectivity ratio for each.
1. CCCn1cc(C(=O)NCc2ccco2)c(=O)c2cc(F)c(N3CCC(C(N)=O)CC3)cc21
2. CCCn1cc(C(=O)NCc2ccc(OC)cc2)c(=O)c2cc(F)c(N3CCC(C(N)=O)CC3)cc21
3. CCCCn1cc(C(=O)NCc2ccccc2)c(=O)c2cc(F)c(N3CCCCC3)cc21
4. CCCCn1cc(C(=O)NCc2ccc(OC)cc2)c(=O)c2cc(F)c(N3CCC(C(N)=O)CC3)cc21

## Result
1: 12.4; 2: 18.2; 3: 71.3; 4: 52.3

## Task Item under review: "NC(=O)C1CCN(c2cc3c(cc2F)c(=O)c(C(=O)NCc2ccccc2)cn3C2CC2)CC1" . Reported selectivity ratio?
## Result 47.9

----------
# System: Trypanosoma brucei brucei
# procedure.details: Antitrypanosomal activity against Trypanosoma brucei brucei TC221 […] after 72 hrs by alamar blue assay
# Assay type: functional, organism-based
# condition.notes: TC221, 72 h
Binarize IC50 at 3 µM; below is MET, at or above is NOT MET.

Solved cases (6 shown):
CCCCn1cc(C(=O)NCc2ccc(O)cc2)c(=O)c2cc(F)c(N3CCC(C(N)=O)CC3)cc21    NOT MET
CCn1cc(C(=O)NCc2ccc(OC)cc2)c(=O)c2ccc(C(F)(F)F)cc21    NOT MET
COc1ccc(CNC(=O)c2cn(C3CC3)c3cc(N4CCC(C(N)=O)CC4)c(F)cc3c2=O)cc1    MET
CCCCn1cc(C(=O)O)c(=O)c2cc(F)c(N(C)C)cc21    NOT MET
CCCCn1cc(C(=O)NCc2ccccc2)c(=O)c2cc(F)c(-c3ccccc3)cc21    NOT MET
CCCn1cc(C(=O)NCc2ccccc2)c(=O)c2cc(F)c(N3CCC(C(N)=O)CC3)cc21    MET

## Task A record lists "CCCCn1cc(C(=O)NCc2ccccc2)c(=O)c2cc(F)c(N3CCC(C(N)=O)CC3)cc21" . Is its IC50 below 3 µM?
## Result MET

## Task A record lists "CCCn1cc(C(=O)O)c(=O)c2cc(F)c(Cl)cc21" . Is its IC50 below 3 µM?
## Result NOT MET

## Task A record lists "NC(=O)C1CCN(c2cc3c(cc2F)c(=O)c(C(=O)NCc2ccco2)cn3C2CC2)CC1" . Is its IC50 below 3 µM?
## Result NOT MET
